Molecular target: SUV39H2 (Homo sapiens (Human), UniProt Q9H5I1)
Sequence (Q9H5I1 whole entry): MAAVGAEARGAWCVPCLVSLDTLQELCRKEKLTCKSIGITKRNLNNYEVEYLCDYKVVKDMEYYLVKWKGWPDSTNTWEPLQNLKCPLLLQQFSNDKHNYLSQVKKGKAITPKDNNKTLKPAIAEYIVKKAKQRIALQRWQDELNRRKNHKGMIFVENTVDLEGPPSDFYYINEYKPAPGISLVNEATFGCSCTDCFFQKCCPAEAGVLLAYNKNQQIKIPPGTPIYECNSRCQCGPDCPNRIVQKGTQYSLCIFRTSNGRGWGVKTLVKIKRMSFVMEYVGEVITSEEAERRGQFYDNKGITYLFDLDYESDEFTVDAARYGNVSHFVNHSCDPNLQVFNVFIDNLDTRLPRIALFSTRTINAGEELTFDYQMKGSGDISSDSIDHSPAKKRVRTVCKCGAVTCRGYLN
Settings: read-out: IC50 (μM) Suv 39H2 assay
Structures can show the parent of a compound that is named as a salt.
VALUE KIND: IC50 (µM)
All answers are understood in µM, so give the number only.

A selection of reference data follows.
| MOLECULE | IC50, µM |
| --- | --- |
| COc1cc(OC)c(-c2cn3ccc(NCCN)cc3n2)cc1Cl [Example 10, dihydrochloride] | 0.015 |
| COc1cc(OC)c(-c2cn3ccc(N4CC[C@H](N)C4)nc3n2)cc1Cl [Example 58, hydrochloride] | 0.0296 |
| COc1cc(OC)c(-c2cn3ccc(N4CCC(CCN)CC4)cc3n2)cc1Cl [Example 72, dihydrochloride] | 0.00875 |

Given the entry COc1cc(OC)c(-c2cn3ccc(N4CCC(CN)CC4)cc3n2)cc1Cl [Example 16, hydrochloride] , report its measured IC50.
0.0122
